Measured on: recombinant soluble homotrimeric HA of A/Hong Kong/2108/03 (H9N2) (Influenza A virus A/HK/2108/2003(H9N2))
Experimental details: trimeric HA microarray, transfection supernatant set 2
Assay setup: remark: other sources report otherwise
Endpoint name: Trimeric HA Binding: RLU (RLU)
Just the number in RLU, nothing appended.

## Task Provide one value: measured Trimeric HA Binding: RLU of TCN-528 (5087_P17) (antibody, V domains shown) VH: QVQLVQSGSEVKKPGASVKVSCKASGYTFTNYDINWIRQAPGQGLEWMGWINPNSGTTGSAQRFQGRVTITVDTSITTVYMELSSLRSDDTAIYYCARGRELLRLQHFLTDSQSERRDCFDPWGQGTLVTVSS VL: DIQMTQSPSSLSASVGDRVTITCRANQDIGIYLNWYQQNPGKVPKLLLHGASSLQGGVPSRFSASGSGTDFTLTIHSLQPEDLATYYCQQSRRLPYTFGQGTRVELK
## Result 33600
